Taken from paper PMC9090415.

Molecular target: P. falciparum apicoplast DNA polymerase (Pf-apPOL) (Plasmodium falciparum, UniProt Q8ILY1)
Sequence (Q8ILY1 entry or part of it): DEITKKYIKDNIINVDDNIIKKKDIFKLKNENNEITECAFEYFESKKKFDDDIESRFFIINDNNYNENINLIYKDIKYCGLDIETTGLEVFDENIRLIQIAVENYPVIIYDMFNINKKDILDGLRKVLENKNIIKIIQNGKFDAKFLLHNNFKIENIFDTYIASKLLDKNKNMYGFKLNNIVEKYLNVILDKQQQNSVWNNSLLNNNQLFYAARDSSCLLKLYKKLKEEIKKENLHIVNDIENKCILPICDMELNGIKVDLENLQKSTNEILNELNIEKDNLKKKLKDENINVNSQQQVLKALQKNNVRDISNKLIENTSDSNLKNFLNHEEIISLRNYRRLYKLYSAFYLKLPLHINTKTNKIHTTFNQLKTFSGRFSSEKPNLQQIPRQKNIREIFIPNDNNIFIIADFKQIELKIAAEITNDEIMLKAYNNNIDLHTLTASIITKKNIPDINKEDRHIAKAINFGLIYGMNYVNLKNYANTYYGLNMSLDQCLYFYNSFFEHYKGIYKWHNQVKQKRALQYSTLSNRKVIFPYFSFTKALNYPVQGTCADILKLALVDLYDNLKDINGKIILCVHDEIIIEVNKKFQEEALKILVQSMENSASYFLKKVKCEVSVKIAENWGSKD
Assay: Fluorescence-based high-throughput DNA polymerase assay (molecular beacon), primary screen and dose-response
Assay type: biochemical
Conditions: DRC-2; 5'; concentration 5
Excerpt: The HT assay employs a molecular beacon, a stem-loop DNA template with a Cy3 dye and the Black Hole Quencher on the 3′ and 5′ ends of the DNA, respectively. Pf-apPOL concentration is based on a calculated absorptivity of ε280 = 56750 M^−1 cm^−1. […] To identify apPOL inhibitors we utilised our previously developed high-throughput DNA polymerase assay. […] The assay accurately recapitulates the kinetic behaviour of apPOL, as measured through more conventional low-throughput gel-based assays. […]

{"columns": ["molecule", "% inhibition Apo pol 5' / %"],
 "data": [
  ["CCCCSc1nnc2c(n1)OC(c1ccc([N+](=O)[O-])o1)Nc1ccccc1-2 (stereo not shown)", 36],
  ["O=c1cc(-c2ccccc2Cl)oc2c(NS(=O)(=O)c3cc(Cl)cc(Cl)c3O)ccc(O)c12", -2.32],
  ["N#Cc1c(C2CCCCC2)nc(Sc2ccc(C(F)(F)F)cc2[N+](=O)[O-])[nH]c1=O", 11],
  ["COCCN(CCOC)Cc1c(O)ccc2c1OC(=Cc1cc(Br)ccc1OC)C2=O", 10],
  ["O=C(CCc1csc(NC(=O)Nc2ccccc2)n1)Nc1nc2ccccc2s1", -6],
  ["O=C(NNC(=O)c1ccc(Cl)cc1)C(=O)NNC(=O)c1ccc(Cl)cc1", 10],
  ["CCOc1ccc(/C=C2\\N=C(c3cc([N+](=O)[O-])cc([N+](=O)[O-])c3)OC2=O)cc1", 43],
  ["O=C(Cc1cccs1)N1CCN(c2nc(CN3CCOCC3)cs2)CC1", 19],
  ["COc1ccc(C)cc1NC(=O)Cn1ccc2c(=O)[nH]ccc21 [Molecule 15, COc1ccc(cc1NC(=O)Cn1ccc2c1cc[nH]c2=O)C]", 24],
  ["Cc1ccc(-n2nnc(C(=O)O)c2-c2ccccn2)c(F)c1", 15],
  ["COc1ccc(-c2c(C(F)(F)F)nn3c(=O)cc(-c4cccc([N+](=O)[O-])c4)[nH]c23)cc1", 14],
  ["COc1ccc(C=C2Oc3c(ccc4c3CN(c3ccc5c(c3)OCO5)CO4)C2=O)cc1OC", 7.39],
  ["C=CCOc1c(Br)cc(Br)cc1/C=C1\\SC(=N)NC1=O", 7],
  ["O=[N+]([O-])c1ccc(/C=C/c2ccc3ccccc3n2)o1", 38],
  ["COCC(=O)Nc1c(-c2cccc(F)c2)nc2cc(C)ccn12", 29],
  ["O=C(Nc1c2c(nn1-c1ccc(Oc3ccccc3)cc1)CSC2)c1ccco1", 12]
]}

----------
# maps each entry to its DNA Pol
Target: P. falciparum apicoplast DNA polymerase (Pf-apPOL) (Plasmodium falciparum)
Assay: Fluorescence-based high-throughput DNA polymerase assay (molecular beacon), primary screen and dose-response
Assay type: biochemical
Conditions: 186 hits, value of the hit list (primary screen); unit not given; 90 min, 10 µM

{"columns": ["molecule", "DNA Pol"],
 "data": [
  ["CCOC(=O)C(NCc1ccco1)(NC(=O)c1ccco1)C(F)(F)F (stereo not shown)", 69],
  ["O=c1cc(-c2ccccc2)oc2c(O)c(O)ccc12", 55],
  ["CS(=O)(=O)c1cccc(C(=O)Nc2nnc(-c3ccno3)o2)c1", 45],
  ["Cn1nc(C(=O)N2CCc3c(nc4cc(-c5ccccc5)[nH]n4c3=O)C2)c2ccccc21", 46]
]}
